System: +Bla K-12 E. coli
Test: microbe, parasite or virus in culture
Type: cell-based, Escherichia coli
Details: Escherichia coli, +Bla K-12 E. coli; LB broth
pIC50: −log10 of the molar value.

{"columns": ["Compound", "pIC50"],
 "data": [
  ["Cc1csc(=S)n1O [TAT, 3-hydroxy-4-methyl-2(3H)-thiazolethione]", 4.44],
  ["Cc1csc(=S)n1OCC1=C(C(=O)O)N2C(=O)[C@@H](NC(=O)Cc3ccccc3)[C@H]2SC1", 3.84],
  ["[O-][n+]1ccccc1S [PT, 2-mercaptopyridine N-oxide]", 8.22]
]}

====

Test system: clinical isolates of Klebsiella pneumonia (Klebs)
Assay: Broth microdilution in Klebs clinical isolates
Type: cell-based
Settings: Klebsiella pneumoniae, Klebs Isolate 11; LB broth; read-out: IC50
pIC50: −log10 of the molar value.

{"columns": ["Compound Smiles", "Assay System", "pIC50"],
 "data": [
  ["CO/N=C(\\C(=O)N[C@@H]1C(=O)N2C(C(=O)O)=C(CSc3nc(=O)c(=O)[nH]n3C)CS[C@H]12)c1csc(N)n1", "clinical isolates of Klebsiella pneumonia (Klebs)", 8.00]
]}

====

The entries below come with measured pIC50 values attached.
System: clinical isolates of Klebsiella pneumonia (Klebs)
Test: Broth microdilution in Klebs clinical isolates
Format: cell-based
Conditions: Klebsiella pneumoniae, Klebs Isolate 3; LB broth
pIC50: −log10 of the molar value.

{"columns": ["Molecule", "pIC50"],
 "data": [
  ["CC1(C)S[C@@H]2[C@H](NC(=O)[C@H](N)c3ccccc3)C(=O)N2[C@H]1C(=O)O [Ampicillin]", 4.26],
  ["O=C(Cc1ccccc1)N[C@@H]1C(=O)N2C(C(=O)O)=C(CSc3cccc[n+]3[O-])CS[C@H]12 [DB4-51]", 3.79],
  ["[O-][n+]1ccccc1S [PT, 2-mercaptopyridine N-oxide]", 4.68]
]}

====

Tested on: clinical isolates of Klebsiella pneumonia (Klebs)
Test: Broth microdilution in Klebs clinical isolates
Type: cell-based
Conditions: Klebsiella pneumoniae, Klebs Isolate 9; LB broth; read-out: IC50
pIC50: −log10 of the molar value.
Measured Attribute: pIC50

{"columns": ["Molecule", "Measured Attribute", "Quantitative Result"],
 "data": [
  ["CO/N=C(\\C(=O)N[C@@H]1C(=O)N2C(C(=O)O)=C(CSc3nc(=O)c(=O)[nH]n3C)CS[C@H]12)c1csc(N)n1 [Ceftriaxone]", "pIC50", 4.14]
]}

====

Tested on: ESBL E. coli
Test: microbe, parasite or virus in culture
Type: cell-based, Escherichia coli
Conditions: Escherichia coli, ESBL E. coli; LB + 10 μM CuCl2
Description: Bacterial culture reagents including LB broth (Lennox), agar-agar, ampicillin, and ceftriaxone were purchased from Sigma Aldrich Corp. The Escherichia coli (E. coli) K12 strain HB101 and pGLO E. coli transformation kit purchased from Bio-Rad Laboratories Inc. HB101 was transformed with the bla gene via the pGLO plasmid. […] IC50 values for ampicillin were calculated via broth microdilution in LB broth only. […]
Measured Attribute: IC50

{"columns": ["Compound Smiles", "Result"],
 "data": [
  ["Cc1csc(=S)n1OCC1=C(C(=O)O)N2C(=O)[C@@H](NC(=O)Cc3ccccc3)[C@H]2SC1", "21 µM"]
]}

====

The entries below come with measured IC50 values attached.
Test system: UTI89 E. coli
Assay: Broth microdilution growth inhibition (OD600)
Type: cell-based, Escherichia coli
Settings: Escherichia coli, UTI89 E. coli; LB + 10 μM CuCl2
Measured Attribute: IC50 (µM)

{"columns": ["Molecule", "Quantitative Result"],
 "data": [
  ["Cc1csc(=S)n1O [TAT, 3-hydroxy-4-methyl-2(3H)-thiazolethione]", 9],
  ["O=C(Cc1ccccc1)N[C@@H]1C(=O)N2C(C(=O)O)=C(CSc3cccc[n+]3[O-])CS[C@H]12", 0.021],
  ["[O-][n+]1ccccc1S [PT, 2-mercaptopyridine N-oxide]", 0.004],
  ["Cc1csc(=S)n1OCC1=C(C(=O)O)N2C(=O)[C@@H](NC(=O)Cc3ccccc3)[C@H]2SC1", 97]
]}

====

Test system: clinical isolates of Klebsiella pneumonia (Klebs)
Assay: Broth microdilution in Klebs clinical isolates
Type: cell-based
Details: Klebsiella pneumoniae, Klebs Isolate 12; LB broth
The entries below come with measured IC50 values attached.
Measured Attribute: IC50 (µM)

{"columns": ["Compound", "Value Unit", "Quantitative Result"],
 "data": [
  ["O=C(Cc1ccccc1)N[C@@H]1C(=O)N2C(C(=O)O)=C(CSc3cccc[n+]3[O-])CS[C@H]12", "µM", 52],
  ["CC1(C)S[C@@H]2[C@H](NC(=O)[C@H](N)c3ccccc3)C(=O)N2[C@H]1C(=O)O", "µM", 112],
  ["[O-][n+]1ccccc1S [PT, 2-mercaptopyridine N-oxide]", "µM", 8]
]}

====

Test system: clinical isolates of Klebsiella pneumonia (Klebs)
Assay: Broth microdilution in Klebs clinical isolates
Type: cell-based
Details: Klebsiella pneumoniae, Klebs Isolate 11; LB broth
The entries below come with measured IC50 values attached.
Measured Attribute: IC50

{"columns": ["Compound", "Assay System", "Result"],
 "data": [
  ["O=C(Cc1ccccc1)N[C@@H]1C(=O)N2C(C(=O)O)=C(CSc3cccc[n+]3[O-])CS[C@H]12", "clinical isolates of Klebsiella pneumonia (Klebs)", "34 µM"],
  ["CC1(C)S[C@@H]2[C@H](NC(=O)[C@H](N)c3ccccc3)C(=O)N2[C@H]1C(=O)O", "clinical isolates of Klebsiella pneumonia (Klebs)", "251 µM"],
  ["[O-][n+]1ccccc1S [PT, 2-mercaptopyridine N-oxide]", "clinical isolates of Klebsiella pneumonia (Klebs)", "6.5 µM"]
]}

====

Tested on: clinical isolates of Klebsiella pneumonia (Klebs)
Test: Broth microdilution in Klebs clinical isolates
Assay type: cell-based
Settings: Klebsiella pneumoniae, Klebs Isolate 1; LB broth; read-out: IC50
From the text: Bacterial culture reagents including LB broth (Lennox), agar-agar, ampicillin, and ceftriaxone were purchased from Sigma Aldrich Corp. The Escherichia coli (E. coli) K12 strain HB101 and pGLO E. coli transformation kit purchased from Bio-Rad Laboratories Inc. HB101 was transformed with the bla gene via the pGLO plasmid. The bla gene encodes for a TEM-1 β-lactamase that imparts penicillin resistance to the mutant E. coli K-12 strain (+Bla). […]

{"columns": ["Compound Smiles", "IC50 (nM)"],
 "data": [
  ["CO/N=C(\\C(=O)N[C@@H]1C(=O)N2C(C(=O)O)=C(CSc3nc(=O)c(=O)[nH]n3C)CS[C@H]12)c1csc(N)n1", 400]
]}

====

Tested on: clinical isolates of Klebsiella pneumonia (Klebs)
Experiment: Broth microdilution in Klebs clinical isolates
Type: cell-based
Conditions: Klebsiella pneumoniae, Klebs Isolate 6; LB broth; read-out: IC50

{"columns": ["Compound", "IC50 [nM]"],
 "data": [
  ["CO/N=C(\\C(=O)N[C@@H]1C(=O)N2C(C(=O)O)=C(CSc3nc(=O)c(=O)[nH]n3C)CS[C@H]12)c1csc(N)n1 [Ceftriaxone]", 300]
]}

====

System: Klebsiella pneumonia (Klebs)
Assay: Broth microdilution growth inhibition (OD600)
Format: cell-based
Details: Klebsiella pneumoniae, LB + 10 μM CuCl2
Measured Attribute: IC50 (µM)

{"columns": ["Molecule", "Assay System", "Measured Attribute", "Quantitative Result"],
 "data": [
  ["O=C(Cc1ccccc1)N[C@@H]1C(=O)N2C(C(=O)O)=C(CSc3cccc[n+]3[O-])CS[C@H]12 [DB4-51]", "Klebsiella pneumonia (Klebs)", "IC50", 0.025],
  ["Cc1csc(=S)n1O [TAT, 3-hydroxy-4-methyl-2(3H)-thiazolethione]", "Klebsiella pneumonia (Klebs)", "IC50", 26],
  ["[O-][n+]1ccccc1S [PT, 2-mercaptopyridine N-oxide]", "Klebsiella pneumonia (Klebs)", "IC50", 0.009],
  ["Cc1csc(=S)n1OCC1=C(C(=O)O)N2C(=O)[C@@H](NC(=O)Cc3ccccc3)[C@H]2SC1 [DB4-162]", "Klebsiella pneumonia (Klebs)", "IC50", 22]
]}

====

Test system: 7 bacterial strains
Assay: Broth microdilution, summary across strains tested
Format: cell-based
Conditions: 500 μM BCS; depending on strain; read-out: IC50 across strains under Cu limiting conditions

{"columns": ["Compound", "IC50"],
 "data": [
  ["[O-][n+]1ccccc1S [PT, 2-mercaptopyridine N-oxide]", "6 to 20 µM"]
]}

====

Test system: pCOM E. coli
Assay: microbe, parasite or virus in culture
Assay type: cell-based, Escherichia coli
Settings: Escherichia coli, pCOM E. coli; LB + 10 μM CuCl2
pIC50: −log10 of the molar value.
The entries below come with measured pIC50 values attached.

{"columns": ["Compound", "pIC50"],
 "data": [
  ["Cc1csc(=S)n1OCC1=C(C(=O)O)N2C(=O)[C@@H](NC(=O)Cc3ccccc3)[C@H]2SC1 [DB4-162]", 4.03],
  ["[O-][n+]1ccccc1S [PT, 2-mercaptopyridine N-oxide]", 8.40],
  ["Cc1csc(=S)n1O [TAT, 3-hydroxy-4-methyl-2(3H)-thiazolethione]", 5.15]
]}
